Quick reference for cytotoxicity at 48 h, 200 µM among some compounds
# experiment: Cytotoxicity against HEK293 cells assessed as reduction in cell viability at 200 uM incubated for 48 hrs by MTT assay relative to control
# Assay type: cell-based
# settings: human, read-out: INH
observedProperty: cytotoxicity at 48 h, 200 µM (%)

1) O=C1NC2(CCCc3ccccc32)C(=O)N1S(=O)(=O)c1ccc(F)cc1 (stereo not given); 36.5
2) CC(C)c1ccc(S(=O)(=O)N2C(=O)NC(=O)C23CCCc2ccccc23)cc1 (stereo not given); 22.3
3) COc1ccc(S(=O)(=O)N2C(=O)NC3(CCCc4ccccc43)C2=O)cc1 (stereo not given); 26.6
4) Cc1ccc(S(=O)(=O)N2C(=O)NC3(CCCc4ccccc43)C2=O)cc1 (stereo not given); 21.5
5) CC(=O)c1ccc(S(=O)(=O)N2C(=O)NC(=O)C23CCCc2ccccc23)cc1 (stereo not given); 34.6
6) CC(/C=C1\SC(=S)N(CC(=O)O)C1=O)=C\c1ccccc1; 18.3
7) Cc1ccc(S(=O)(=O)N2C(=O)NC(=O)C23CCCc2ccccc23)cc1 (stereo not given); 32
8) O=C1NC2(CCCc3ccccc32)C(=O)N1S(=O)(=O)c1ccc(Cl)cc1 (stereo not given); 23.3
9) CC(=O)c1ccc(S(=O)(=O)N2C(=O)NC3(CCCc4ccccc43)C2=O)cc1 (stereo not given); 55.5
10) O=C1NC(=O)C2(CCCc3ccccc32)N1S(=O)(=O)c1ccc(Br)cc1 (stereo not given); 25.8

====

# experiment: Cytotoxicity against HEK293 cells assessed as reduction in cell viability at 100 uM incubated for 48 hrs by MTT assay relative to control
# Format: cell-based
# settings: human, read-out: INH
Quick reference for cytotoxicity at 48 h, 100 µM among some compounds
observedProperty: cytotoxicity at 48 h, 100 µM (%)

1. CC(=O)c1ccc(S(=O)(=O)N2C(=O)NC3(CCCc4ccccc43)C2=O)cc1 (configuration not stated); 42
2. COc1ccc(S(=O)(=O)N2C(=O)NC(=O)C23CCCc2ccccc23)cc1 (configuration not stated); 25.2
3. O=C1NC(=O)C2(CCCc3ccccc32)N1S(=O)(=O)c1ccc([N+](=O)[O-])cc1 (configuration not stated); 39.2
4. Cc1ccc(S(=O)(=O)N2C(=O)NC(=O)C23CCCc2ccccc23)cc1 (configuration not stated); 22.6
5. Cc1ccc(S(=O)(=O)N2C(=O)NC3(CCCc4ccccc43)C2=O)cc1 (configuration not stated); 20.2
6. O=C1NC2(CCCc3ccccc32)C(=O)N1S(=O)(=O)c1ccc(Cl)cc1 (configuration not stated); 18.2
7. O=C1NC2(CCCc3ccccc32)C(=O)N1S(=O)(=O)c1ccc([N+](=O)[O-])cc1 (configuration not stated); 19.2
8. O=C1NC2(CCCc3ccccc32)C(=O)N1S(=O)(=O)c1ccc(Br)cc1 (configuration not stated); 21.1
9. COc1ccc(S(=O)(=O)N2C(=O)NC3(CCCc4ccccc43)C2=O)cc1 (configuration not stated); 18.5
10. O=C1NC(=O)C2(CCCc3ccccc32)N1S(=O)(=O)c1ccc(Cl)cc1 (configuration not stated); 19.9
11. CC(C)c1ccc(S(=O)(=O)N2C(=O)NC3(CCCc4ccccc43)C2=O)cc1 (configuration not stated); 12.6
12. O=C1NC(=O)C2(CCCc3ccccc32)N1S(=O)(=O)c1ccc(Br)cc1 (configuration not stated); 19.4
13. CC(/C=C1\SC(=S)N(CC(=O)O)C1=O)=C\c1ccccc1; 13.7
14. CC(C)c1ccc(S(=O)(=O)N2C(=O)NC(=O)C23CCCc2ccccc23)cc1 (configuration not stated); 16.1
15. CC(=O)c1ccc(S(=O)(=O)N2C(=O)NC(=O)C23CCCc2ccccc23)cc1 (configuration not stated); 26.6
16. O=C1NC(=O)C2(CCCc3ccccc32)N1S(=O)(=O)c1ccc(F)cc1 (configuration not stated); 25.1
17. O=C1NC2(CCCc3ccccc32)C(=O)N1S(=O)(=O)c1ccc(F)cc1 (configuration not stated); 31.9

====

# experiment: Cytotoxicity against HEK293 cells assessed as reduction in cell viability at 200 uM incubated for 48 hrs by MTT assay relative to control
# Format: cell-based
# settings: human, read-out: INH
Respond with Fulfilled for cytotoxicity at 48 h, 200 µM values of 30% and above, Not fulfilled for values below.

1. O=C1NC2(CCCc3ccccc32)C(=O)N1S(=O)(=O)c1ccc(Br)cc1 (configuration not stated); Fulfilled
2. O=C1NC(=O)C2(CCCc3ccccc32)N1S(=O)(=O)c1ccc(Cl)cc1 (configuration not stated); Fulfilled
3. O=C1NC(=O)C2(CCCc3ccccc32)N1S(=O)(=O)c1ccc(F)cc1 (configuration not stated); Fulfilled
4. CC(C)c1ccc(S(=O)(=O)N2C(=O)NC3(CCCc4ccccc43)C2=O)cc1 (configuration not stated); Not fulfilled
5. O=C1NC(=O)C2(CCCc3ccccc32)N1S(=O)(=O)c1ccc([N+](=O)[O-])cc1 (configuration not stated); Fulfilled
6. O=C1NC2(CCCc3ccccc32)C(=O)N1S(=O)(=O)c1ccc([N+](=O)[O-])cc1 (configuration not stated); Not fulfilled
7. COc1ccc(S(=O)(=O)N2C(=O)NC(=O)C23CCCc2ccccc23)cc1 (configuration not stated); Not fulfilled

====

# experiment: Antioxidant activity assessed as DPPH radical scavenging activity at 10 uM incubated for 30 mins under dark condition by spectrophotometry
# Assay type: functional
Respond with 1 for inhibition values of 70% and above, 0 for values below.

1) Cc1ccc(S(=O)(=O)N2C(=O)NC3(CCCc4ccccc43)C2=O)cc1 (stereo unspecified); 0
2) CC(C)c1ccc(S(=O)(=O)N2C(=O)NC(=O)C23CCCc2ccccc23)cc1 (stereo unspecified); 1
3) COc1ccc(S(=O)(=O)N2C(=O)NC(=O)C23CCCc2ccccc23)cc1 (stereo unspecified); 0
4) COc1ccc(S(=O)(=O)N2C(=O)NC3(CCCc4ccccc43)C2=O)cc1 (stereo unspecified); 0
5) CC(C)c1ccc(S(=O)(=O)N2C(=O)NC3(CCCc4ccccc43)C2=O)cc1 (stereo unspecified); 1
6) Cc1c(C)c2c(c(C)c1O)CCC(C)(C(=O)O)O2 (stereo unspecified); 1

====

Quick reference for pIC50 among some molecules
# measurementTarget: Aldo-keto reductase family 1 member B1 (Rattus norvegicus, UniProt P07943)
# experiment: Inhibition of ALR2 in rat lens assessed as reduction in sorbitol accumulation incubated for 3 hrs in presence of 28 mM glucose by gas chromatographic analysis relative to control
pIC50: −log10 of the molar value.
observedProperty: pIC50

1) Cc1ccc(S(=O)(=O)N2C(=O)NC3(CCCc4ccccc43)C2=O)cc1 (configuration not stated); 5.81
2) COc1ccc(S(=O)(=O)N2C(=O)NC3(CCCc4ccccc43)C2=O)cc1 (configuration not stated); 4.80
3) O=C1NC(=O)C2(CCCc3ccccc32)N1S(=O)(=O)c1ccc(Cl)cc1 (configuration not stated); 5.41
4) CC(C)c1ccc(S(=O)(=O)N2C(=O)NC3(CCCc4ccccc43)C2=O)cc1 (configuration not stated); 4.97
5) CC(=O)c1ccc(S(=O)(=O)N2C(=O)NC(=O)C23CCCc2ccccc23)cc1 (configuration not stated); 6.19
6) CC(=O)c1ccc(S(=O)(=O)N2C(=O)NC3(CCCc4ccccc43)C2=O)cc1 (configuration not stated); 4.46
7) O=C1NC(=O)C2(CCCc3ccccc32)N1S(=O)(=O)c1ccc(Br)cc1 (configuration not stated); 5.60

====

# measurementTarget: Aldo-keto reductase family 1 member A1 (Rattus norvegicus)
# Sequence (P51635 whole entry, looked up): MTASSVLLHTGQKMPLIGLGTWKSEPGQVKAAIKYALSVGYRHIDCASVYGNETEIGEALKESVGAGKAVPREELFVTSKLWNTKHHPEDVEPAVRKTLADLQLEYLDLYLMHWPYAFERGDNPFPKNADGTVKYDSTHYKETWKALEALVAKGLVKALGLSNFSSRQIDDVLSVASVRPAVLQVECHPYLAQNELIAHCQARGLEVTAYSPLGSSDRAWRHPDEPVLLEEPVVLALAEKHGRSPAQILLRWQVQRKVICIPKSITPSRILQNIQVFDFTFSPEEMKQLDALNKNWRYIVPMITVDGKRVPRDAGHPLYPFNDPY
observedProperty: IC50 (µM)

1. CC(C)c1ccc(S(=O)(=O)N2C(=O)NC3(CCCc4ccccc43)C2=O)cc1 (stereo not drawn); 32.5
2. O=C1NC2(CCCc3ccccc32)C(=O)N1S(=O)(=O)c1ccc(Br)cc1 (stereo not drawn); 44.1
3. O=C1NC(=O)C2(CCCc3ccccc32)N1S(=O)(=O)c1ccc(Br)cc1 (stereo not drawn); 41.4

====

# measurementTarget: Aldo-keto reductase family 1 member B1 (Homo sapiens)
# experiment: Inhibition of human recombinant ALR2 expressed in Escherichia coli using DL-glyceraldehyde as substrate and NADPH preincubated for 5 mins followed by substrate addition and measured after 30 mins at 2 mins interval by spectrophotometry relative to control
The label is t for IC50 below 6 µM and f for IC50 equal to or exceeding 6 µM.

1. COc1ccc(S(=O)(=O)N2C(=O)NC3(CCCc4ccccc43)C2=O)cc1 (centres undefined); f
2. Cc1ccc(S(=O)(=O)N2C(=O)NC3(CCCc4ccccc43)C2=O)cc1 (centres undefined); t
3. O=C1NC(=O)C2(CCCc3ccccc32)N1S(=O)(=O)c1ccc([N+](=O)[O-])cc1 (centres undefined); f
4. O=C1NC2(CCCc3ccccc32)C(=O)N1S(=O)(=O)c1ccc(Cl)cc1 (centres undefined); f
5. CC(C)c1ccc(S(=O)(=O)N2C(=O)NC(=O)C23CCCc2ccccc23)cc1 (centres undefined); t
6. COc1ccc(S(=O)(=O)N2C(=O)NC(=O)C23CCCc2ccccc23)cc1 (centres undefined); t
7. Cc1ccc(S(=O)(=O)N2C(=O)NC(=O)C23CCCc2ccccc23)cc1 (centres undefined); t
8. O=C1NC(=O)C2(CCCc3ccccc32)N1S(=O)(=O)c1ccc(Br)cc1 (centres undefined); t

Attribution: ChEMBL document CHEMBL4387705
